Measured OD450 at 0.0001 nM, listed per entry.
- SYSTEM_NAME: T1, monkey GPC3-His protein (monkey)
- T1 construct: Bought recombinant protein; also called monkey GPC3 protein
- ASSAY_METHOD_TEXT: ELISA, monkey GPC3-His coated;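 note: Plate-coated antigen at 1 µg/mL, antibody binding 2 h at 37 °C, detected with HRP-labeled secondary antibody and TMB, absorbance at 450 nm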
// units = OD450; emit number, no label

- BINDER: "F1.57.21 (antibody, human IgG1, kappa, V domains shown, Human-murine chimeric antibody) VH: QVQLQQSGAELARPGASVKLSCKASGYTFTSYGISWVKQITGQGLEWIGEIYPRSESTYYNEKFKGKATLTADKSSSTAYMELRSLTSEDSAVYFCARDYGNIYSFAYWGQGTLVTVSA VL: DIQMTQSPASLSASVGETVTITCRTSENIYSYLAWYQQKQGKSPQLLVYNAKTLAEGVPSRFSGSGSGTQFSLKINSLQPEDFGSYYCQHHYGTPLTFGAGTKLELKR"
  ASSAY_METRIC: "OD450 at 0.0001 nM"
  U: "OD450"
  QUANTITATIVE_RESULT: 0.05
- BINDER: "F3.54.12 (antibody, human IgG1, kappa, V domains shown, Human-murine chimeric antibody) VH: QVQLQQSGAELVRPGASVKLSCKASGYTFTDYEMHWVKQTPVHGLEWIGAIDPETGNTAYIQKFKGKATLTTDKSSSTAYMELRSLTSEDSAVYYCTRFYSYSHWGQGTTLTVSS VL: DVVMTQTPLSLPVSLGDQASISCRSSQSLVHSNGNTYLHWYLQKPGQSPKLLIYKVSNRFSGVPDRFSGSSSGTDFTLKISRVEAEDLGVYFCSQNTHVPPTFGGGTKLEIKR"
  ASSAY_METRIC: "OD450 at 0.0001 nM"
  U: "OD450"
  QUANTITATIVE_RESULT: 0.08
- BINDER: "F3.38.7 (antibody, human IgG1, kappa, V domains shown, Human-murine chimeric antibody) VH: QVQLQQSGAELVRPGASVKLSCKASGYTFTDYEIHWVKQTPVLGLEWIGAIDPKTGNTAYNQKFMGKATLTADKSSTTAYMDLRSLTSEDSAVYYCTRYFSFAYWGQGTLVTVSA VL: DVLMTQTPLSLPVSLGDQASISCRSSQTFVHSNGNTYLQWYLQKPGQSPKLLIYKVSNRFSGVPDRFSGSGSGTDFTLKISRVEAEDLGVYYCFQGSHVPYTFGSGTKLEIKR"
  ASSAY_METRIC: "OD450 at 0.0001 nM"
  U: "OD450"
  QUANTITATIVE_RESULT: 0.06
- BINDER: "F2.152.3 (antibody, human IgG1, kappa, V domains shown, Human-murine chimeric antibody) VH: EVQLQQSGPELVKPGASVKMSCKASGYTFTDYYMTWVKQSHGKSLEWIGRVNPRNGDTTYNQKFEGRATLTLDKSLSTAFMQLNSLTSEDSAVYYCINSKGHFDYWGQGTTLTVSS VL: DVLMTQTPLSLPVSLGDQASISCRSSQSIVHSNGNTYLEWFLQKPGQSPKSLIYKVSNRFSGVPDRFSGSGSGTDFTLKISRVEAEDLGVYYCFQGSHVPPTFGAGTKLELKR"
  ASSAY_METRIC: "OD450 at 0.0001 nM"
  U: "OD450"
  QUANTITATIVE_RESULT: 0.24
- BINDER: "F1.110.24 (antibody, human IgG1, kappa, V domains shown, Human-murine chimeric antibody) VH: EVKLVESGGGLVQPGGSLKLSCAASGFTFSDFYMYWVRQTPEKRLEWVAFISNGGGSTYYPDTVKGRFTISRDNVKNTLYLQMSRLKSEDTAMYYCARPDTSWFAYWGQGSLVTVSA VL: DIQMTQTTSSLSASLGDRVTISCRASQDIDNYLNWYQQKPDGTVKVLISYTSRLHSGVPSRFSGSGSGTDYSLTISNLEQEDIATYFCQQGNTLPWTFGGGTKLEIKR"
  ASSAY_METRIC: "OD450 at 0.0001 nM"
  U: "OD450"
  QUANTITATIVE_RESULT: 0.05
- BINDER: "F1.118.4 (antibody, human IgG1, kappa, V domains shown, Human-murine chimeric antibody) VH: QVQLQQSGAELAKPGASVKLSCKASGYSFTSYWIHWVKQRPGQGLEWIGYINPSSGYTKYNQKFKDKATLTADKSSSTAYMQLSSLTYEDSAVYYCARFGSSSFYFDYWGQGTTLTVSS VL: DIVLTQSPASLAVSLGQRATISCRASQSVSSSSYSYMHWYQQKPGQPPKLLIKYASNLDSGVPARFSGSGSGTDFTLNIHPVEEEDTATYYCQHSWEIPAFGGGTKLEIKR"
  ASSAY_METRIC: "OD450 at 0.0001 nM"
  U: "OD450"
  QUANTITATIVE_RESULT: 0.05
- BINDER: "F1.120.16 (antibody, human IgG1, kappa, V domains shown, Human-murine chimeric antibody) VH: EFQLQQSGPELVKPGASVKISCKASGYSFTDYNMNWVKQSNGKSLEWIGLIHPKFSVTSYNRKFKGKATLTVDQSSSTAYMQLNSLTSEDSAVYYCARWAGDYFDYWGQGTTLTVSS VL: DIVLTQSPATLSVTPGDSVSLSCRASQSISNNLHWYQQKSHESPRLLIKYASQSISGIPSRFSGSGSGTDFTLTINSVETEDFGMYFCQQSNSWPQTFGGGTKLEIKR"
  ASSAY_METRIC: "OD450 at 0.0001 nM"
  U: "OD450"
  QUANTITATIVE_RESULT: 0.07
- BINDER: "F2.39.2 (antibody, human IgG1, kappa, V domains shown, Human-murine chimeric antibody) VH: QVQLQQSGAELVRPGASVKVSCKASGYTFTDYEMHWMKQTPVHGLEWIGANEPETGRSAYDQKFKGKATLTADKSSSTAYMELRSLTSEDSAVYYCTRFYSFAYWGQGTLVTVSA VL: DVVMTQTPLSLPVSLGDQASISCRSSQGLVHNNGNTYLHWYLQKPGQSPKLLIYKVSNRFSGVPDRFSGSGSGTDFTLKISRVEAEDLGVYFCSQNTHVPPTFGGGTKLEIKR"
  ASSAY_METRIC: "OD450 at 0.0001 nM"
  U: "OD450"
  QUANTITATIVE_RESULT: 0.21
- BINDER: "F1.42.8 (antibody, human IgG1, kappa, V domains shown, Human-murine chimeric antibody) VH: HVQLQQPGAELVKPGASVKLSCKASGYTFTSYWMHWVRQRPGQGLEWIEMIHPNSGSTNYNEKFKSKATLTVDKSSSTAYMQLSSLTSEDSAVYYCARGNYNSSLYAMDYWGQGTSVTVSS VL: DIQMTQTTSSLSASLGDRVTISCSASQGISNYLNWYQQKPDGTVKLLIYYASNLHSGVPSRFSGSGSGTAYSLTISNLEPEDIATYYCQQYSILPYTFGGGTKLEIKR"
  ASSAY_METRIC: "OD450 at 0.0001 nM"
  U: "OD450"
  QUANTITATIVE_RESULT: 0.05

Data point: F1.21.8 (antibody, human IgG1, kappa, V domains shown, Human-murine chimeric antibody) VH: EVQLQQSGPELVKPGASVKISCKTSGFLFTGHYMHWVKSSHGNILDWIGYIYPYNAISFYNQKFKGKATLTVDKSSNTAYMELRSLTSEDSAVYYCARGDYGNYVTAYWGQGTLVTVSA VL: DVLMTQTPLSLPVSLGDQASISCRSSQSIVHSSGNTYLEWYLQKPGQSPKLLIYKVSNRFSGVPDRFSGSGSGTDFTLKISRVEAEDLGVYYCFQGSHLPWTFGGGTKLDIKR ; OD450 at 0.0001 nM = 0.05
